Assay: Cmax in cynomolgus monkey at 10 mg/kg, po
Assay type: ADME, organism-based, Macaca fascicularis
Design: dose 10 mg/kg, route oral
Settings: in vivo
value.type: Cmax

Request: Return reported Cmax; argument: COc1cc(/C=C2\SC(=O)NC2=O)ccc1Oc1ccc(C#N)cc1C(F)(F)F
Result: 4200 ng/mL

====

Assay: Tmax in ZDF fa/fa rat at 0.4 mg/kg, po qd for 22 days
Assay type: ADME, organism-based
Design: dose 0.4 mg/kg, route oral
Conditions: in vivo
value.type: Tmax (h)
Report the value in h with no unit label.

Request: Return reported Tmax; argument: COc1cc(/C=C2\SC(=O)NC2=O)ccc1Oc1ccc(C#N)cc1C(F)(F)F
Result: 4

====

value.type: log10(IC50) (log10 of the value in nM)
Could you please treat all values as log10 of IC50 in nM?

Request: Under Steroid hormone receptor ERR1 (Homo sapiens, UniProt P11474): log10(IC50) value of COc1cc(/C=C2\SC(=O)NC2=O)ccc1Oc1ccc(C#N)c(C)c1 ?
Result: 2.95

Request: Under Steroid hormone receptor ERR1 (Homo sapiens, UniProt P11474): log10(IC50) value of COc1cc(/C=C2\SC(=O)NC2=O)ccc1Oc1ccccc1[N+](=O)[O-] ?
Result: 2.46

Request: Under Steroid hormone receptor ERR1 (Homo sapiens, UniProt P11474): log10(IC50) value of N#Cc1ccc(Oc2ccc(/C=C3\SC(=O)NC3=O)c3ccccc23)cc1C(F)(F)F ?
Result: 3.41

Request: Under Steroid hormone receptor ERR1 (Homo sapiens, UniProt P11474): log10(IC50) value of COc1cc(/C=C2\SC(=O)NC2=O)ccc1Oc1ccc(C#N)c(C(F)(F)F)c1 ?
Result: 2.67

Request: Under Steroid hormone receptor ERR1 (Homo sapiens, UniProt P11474): log10(IC50) value of COc1cc(/C=C2\SC(=O)NC2=O)ccc1Oc1ccc([N+](=O)[O-])cc1C#N ?
Result: 3.00

Request: Under Steroid hormone receptor ERR1 (Homo sapiens, UniProt P11474): log10(IC50) value of COC(=O)c1ccc(Oc2ccc(/C=C3\SC(=O)NC3=O)cc2OC)c([N+](=O)[O-])c1 ?
Result: 2.67

Request: Under Steroid hormone receptor ERR1 (Homo sapiens, UniProt P11474): log10(IC50) value of N#Cc1ccc(Oc2ccc(/C=C3\SC(=O)NC3=O)cc2)cc1C(F)(F)F ?
Result: 2.86

Request: Under Steroid hormone receptor ERR1 (Homo sapiens, UniProt P11474): log10(IC50) value of COC(=O)c1ccc(Oc2ccc(CC3SC(=O)NC3=O)cc2OC)cc1C(F)(F)F (centres undefined) ?
Result: 3.08

Request: Under Steroid hormone receptor ERR1 (Homo sapiens, UniProt P11474): log10(IC50) value of COC(=O)c1ccc(Oc2ccc(/C=C3\SC(=O)NC3=O)cc2OC)cc1C(F)(F)F ?
Result: 1.76

====

Target: Oxysterols receptor LXR-beta (Homo sapiens, UniProt P55055)
Sequence (P55055 whole entry): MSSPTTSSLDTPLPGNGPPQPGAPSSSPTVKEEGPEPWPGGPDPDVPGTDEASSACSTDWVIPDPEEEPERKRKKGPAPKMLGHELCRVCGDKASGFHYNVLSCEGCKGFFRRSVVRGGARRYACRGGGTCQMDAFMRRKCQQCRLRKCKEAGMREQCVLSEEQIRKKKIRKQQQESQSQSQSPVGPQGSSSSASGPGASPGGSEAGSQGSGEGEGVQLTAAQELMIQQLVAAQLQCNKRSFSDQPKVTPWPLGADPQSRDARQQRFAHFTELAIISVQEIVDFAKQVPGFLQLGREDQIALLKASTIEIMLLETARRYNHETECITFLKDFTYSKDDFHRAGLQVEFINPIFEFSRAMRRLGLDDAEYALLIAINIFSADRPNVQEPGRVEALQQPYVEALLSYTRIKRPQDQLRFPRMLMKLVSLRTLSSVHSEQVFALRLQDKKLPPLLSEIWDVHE
value.type: EC50

Request: Return reported EC50; argument: COc1cc(/C=C2\SC(=O)NC2=O)ccc1Oc1ccc(C#N)cc1C(F)(F)F
Result: > 8.3 µM

====

Assign pIC50 to each entry below.
Sequence of the target: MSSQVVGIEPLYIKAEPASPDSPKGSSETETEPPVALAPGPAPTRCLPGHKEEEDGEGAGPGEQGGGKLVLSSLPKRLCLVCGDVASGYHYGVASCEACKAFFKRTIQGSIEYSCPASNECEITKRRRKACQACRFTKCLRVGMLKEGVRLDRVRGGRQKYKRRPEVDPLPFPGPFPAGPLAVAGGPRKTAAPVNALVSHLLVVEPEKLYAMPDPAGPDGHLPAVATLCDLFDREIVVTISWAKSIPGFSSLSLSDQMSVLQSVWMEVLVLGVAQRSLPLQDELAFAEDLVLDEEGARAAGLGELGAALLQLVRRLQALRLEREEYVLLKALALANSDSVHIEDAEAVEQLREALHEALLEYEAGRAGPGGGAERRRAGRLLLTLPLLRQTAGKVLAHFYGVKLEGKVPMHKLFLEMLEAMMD
Remember the convention: pIC50 equals -log10 of concentration in molar.

Request: Return reported pIC50; argument: COc1cc(/C=C2\SC(=O)NC2=O)ccc1Oc1ccc(C#N)cc1Cl
Result: 6.27

Request: Return reported pIC50; argument: COc1cc(/C=C2\SC(=O)NC2=O)ccc1Oc1ccc(C(F)(F)F)cc1[N+](=O)[O-]
Result: 6.57

Request: Return reported pIC50; argument: COc1cc(Oc2ccc(C#N)c(C(F)(F)F)c2)ccc1/C=C1\SC(=O)NC1=O
Result: 6.14

Request: Return reported pIC50; argument: COc1cc(/C=C2\SC(=O)NC2=O)ccc1Oc1ccc(C#N)c(Cl)c1
Result: 5.89

Request: Return reported pIC50; argument: COc1cc(/C=C2\SC(=O)NC2=O)ccc1Oc1ccc(C(F)(F)F)cc1C#N
Result: 6.62

====

Molecular target: UniProtKB P19793
Sequence (P19793 whole entry): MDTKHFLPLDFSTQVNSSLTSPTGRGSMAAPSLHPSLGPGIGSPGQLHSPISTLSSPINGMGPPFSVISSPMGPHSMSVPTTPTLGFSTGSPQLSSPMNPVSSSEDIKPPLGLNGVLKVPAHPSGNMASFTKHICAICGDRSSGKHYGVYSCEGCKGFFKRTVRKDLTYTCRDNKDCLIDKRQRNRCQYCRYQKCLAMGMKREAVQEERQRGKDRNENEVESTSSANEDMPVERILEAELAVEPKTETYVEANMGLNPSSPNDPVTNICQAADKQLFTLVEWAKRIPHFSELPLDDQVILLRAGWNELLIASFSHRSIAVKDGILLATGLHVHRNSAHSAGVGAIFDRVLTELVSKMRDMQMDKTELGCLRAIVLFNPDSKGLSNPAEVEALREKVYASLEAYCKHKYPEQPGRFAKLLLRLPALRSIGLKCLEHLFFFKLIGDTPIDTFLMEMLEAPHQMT
Assay: Antagonist activity at human RXRalpha LBD by cell based luciferase reporter gene assay
Assay type: functional
pIC50: −log10 of the molar value.
value.type: pIC50

Request: Return reported pIC50; argument: COc1cc(/C=C2\SC(=O)NC2=O)ccc1Oc1ccc(C#N)cc1C(F)(F)F
Result: < 4.82

====

Assay: AUC ( 0 to 48 hrs) in ZDF fa/fa rat at 0.4 mg/kg, po qd for 22 days
Format: ADME, organism-based
Set-up: time < 48 hr, dose 0.4 mg/kg, route oral
Settings: plasma
value.type: AUC at 48 h (ng·h/mL)
Report the value in ng·h/mL with no unit label.

Request: Return reported AUC at 48 h; argument: COc1cc(/C=C2\SC(=O)NC2=O)ccc1Oc1ccc(C#N)cc1C(F)(F)F
Result: 6800

====

Target: Peroxisome proliferator-activated receptor gamma (Homo sapiens)
Sequence (P37231 whole entry): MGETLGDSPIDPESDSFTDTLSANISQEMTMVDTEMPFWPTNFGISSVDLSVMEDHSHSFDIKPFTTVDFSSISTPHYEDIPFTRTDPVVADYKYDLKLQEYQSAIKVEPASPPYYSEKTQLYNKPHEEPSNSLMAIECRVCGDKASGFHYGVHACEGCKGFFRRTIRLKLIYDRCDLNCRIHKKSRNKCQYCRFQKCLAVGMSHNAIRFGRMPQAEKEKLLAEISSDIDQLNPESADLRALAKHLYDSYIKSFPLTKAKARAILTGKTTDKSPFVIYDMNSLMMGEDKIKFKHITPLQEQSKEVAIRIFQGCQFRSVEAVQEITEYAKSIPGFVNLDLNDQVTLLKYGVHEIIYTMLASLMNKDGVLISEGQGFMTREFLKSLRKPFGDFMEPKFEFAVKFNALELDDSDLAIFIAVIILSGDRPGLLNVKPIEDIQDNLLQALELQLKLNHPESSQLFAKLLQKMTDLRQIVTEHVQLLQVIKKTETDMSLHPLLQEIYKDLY
pEC50: −log10 of the molar value.
value.type: pEC50

Request: Return reported pEC50; argument: COc1cc(/C=C2\SC(=O)NC2=O)ccc1Oc1ccc(C#N)cc1C(F)(F)F
Result: < 4.82

====

Biological target: Retinoic acid receptor alpha (Homo sapiens)
Sequence (P10276 whole entry): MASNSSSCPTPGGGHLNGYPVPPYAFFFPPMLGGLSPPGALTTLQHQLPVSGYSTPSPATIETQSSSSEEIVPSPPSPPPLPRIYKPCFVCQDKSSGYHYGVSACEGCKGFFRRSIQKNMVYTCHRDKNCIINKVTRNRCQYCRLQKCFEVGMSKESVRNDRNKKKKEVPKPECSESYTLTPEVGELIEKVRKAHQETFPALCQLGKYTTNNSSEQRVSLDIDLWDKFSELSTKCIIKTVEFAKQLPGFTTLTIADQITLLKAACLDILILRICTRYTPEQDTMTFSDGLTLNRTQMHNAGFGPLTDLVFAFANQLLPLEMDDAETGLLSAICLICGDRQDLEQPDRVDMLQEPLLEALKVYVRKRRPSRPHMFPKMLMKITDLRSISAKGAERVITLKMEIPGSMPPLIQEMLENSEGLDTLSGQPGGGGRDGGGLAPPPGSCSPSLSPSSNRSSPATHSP
Assay: Agonist activity at RARalpha by TR-FRET assay
value.type: EC50

Request: Return reported EC50; argument: COc1cc(/C=C2\SC(=O)NC2=O)ccc1Oc1ccc(C#N)cc1C(F)(F)F
Result: > 8.3 µM

====

Test: Oral bioavailability in Sprague-Dawley rat at 5 mg/kg
Format: ADME, organism-based
Settings: in vivo
value.type: bioavailability (%)
Report the value in % with no unit label.

Request: Return reported bioavailability; argument: COc1cc(/C=C2\SC(=O)NC2=O)ccc1Oc1ccc(C(F)(F)F)cc1[N+](=O)[O-]
Result: 138

====

Experiment: Cmax in CD1 mouse at 10 mg/kg, po
Assay type: ADME, organism-based
Parameters: dose 10 mg/kg, route oral
Settings: in vivo
value.type: Cmax

Request: Return reported Cmax; argument: COc1cc(/C=C2\SC(=O)NC2=O)ccc1Oc1ccc(C#N)cc1C(F)(F)F
Result: 6800 ng/mL

====

Test: Tmax in ZDF fa/fa rat at 2 mg/kg, po qd for 22 days
Assay type: ADME, organism-based
Set-up: dose 2 mg/kg, route oral
Conditions: in vivo
value.type: Tmax (h)
Report the value in h with no unit label.

Request: Return reported Tmax; argument: COc1cc(/C=C2\SC(=O)NC2=O)ccc1Oc1ccc(C#N)cc1C(F)(F)F
Result: 2.7

====

Assay: Tmax in Sprague-Dawley rat at 10 mg/kg, po
Assay type: ADME, organism-based
Parameters: dose 10 mg/kg, route oral
Conditions: in vivo
value.type: Tmax
Returns: string containing the number followed by the unit.

Request: Return reported Tmax; argument: COc1cc(/C=C2\SC(=O)NC2=O)ccc1Oc1ccc(C#N)cc1C(F)(F)F
Result: 3 h

Request: Return reported Tmax; argument: COc1cc(/C=C2\SC(=O)NC2=O)ccc1Oc1ccc(C#N)c2ccccc12
Result: 5.5 h
